# TARGET DESC: EGFR kinase (Homo sapiens)
# Sequence (P00533 25-1210): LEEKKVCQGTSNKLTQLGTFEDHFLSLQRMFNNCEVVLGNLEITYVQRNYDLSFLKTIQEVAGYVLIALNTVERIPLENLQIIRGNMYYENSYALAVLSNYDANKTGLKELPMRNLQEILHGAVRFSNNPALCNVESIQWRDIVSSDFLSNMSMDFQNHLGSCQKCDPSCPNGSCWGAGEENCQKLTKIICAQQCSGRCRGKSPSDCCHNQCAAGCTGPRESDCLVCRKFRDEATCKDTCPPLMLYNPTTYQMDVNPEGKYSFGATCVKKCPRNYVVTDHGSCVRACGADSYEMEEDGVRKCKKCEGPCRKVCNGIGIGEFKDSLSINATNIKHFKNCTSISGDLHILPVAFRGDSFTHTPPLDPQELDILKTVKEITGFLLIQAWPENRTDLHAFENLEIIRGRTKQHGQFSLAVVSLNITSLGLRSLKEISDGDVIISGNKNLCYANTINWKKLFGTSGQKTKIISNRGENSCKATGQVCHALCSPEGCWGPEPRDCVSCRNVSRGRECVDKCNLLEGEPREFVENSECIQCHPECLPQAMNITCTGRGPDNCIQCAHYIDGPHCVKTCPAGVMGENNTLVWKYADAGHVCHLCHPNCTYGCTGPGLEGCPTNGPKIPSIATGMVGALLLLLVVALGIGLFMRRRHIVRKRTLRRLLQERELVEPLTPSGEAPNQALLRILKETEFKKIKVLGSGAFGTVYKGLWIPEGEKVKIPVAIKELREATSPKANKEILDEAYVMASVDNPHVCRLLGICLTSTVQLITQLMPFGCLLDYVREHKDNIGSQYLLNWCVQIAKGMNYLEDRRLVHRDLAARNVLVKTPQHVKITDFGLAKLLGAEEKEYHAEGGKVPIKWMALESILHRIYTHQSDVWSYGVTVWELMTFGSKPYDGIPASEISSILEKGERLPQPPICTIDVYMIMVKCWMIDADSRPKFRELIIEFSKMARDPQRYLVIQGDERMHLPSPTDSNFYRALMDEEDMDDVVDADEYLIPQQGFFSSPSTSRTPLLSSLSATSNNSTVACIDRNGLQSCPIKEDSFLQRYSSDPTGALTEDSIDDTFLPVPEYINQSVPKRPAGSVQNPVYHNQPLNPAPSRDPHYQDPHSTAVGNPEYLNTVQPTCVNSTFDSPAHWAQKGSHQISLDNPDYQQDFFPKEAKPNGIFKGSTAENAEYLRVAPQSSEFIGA
# TEST SUMMARY: EGFR kinase inhibitory assay
# Assay type: biochemical
# CONDITION PARAMETERS: concentration not given; average of three replicates
ENDPOINT: % of EGFR inhibition
Field note: include the unit after the figure.

In the examples that follow, each entry is paired with its recorded % of EGFR inhibition.
| ENTRY SMILES | TARGET DESC | TEST VALUE |
| --- | --- | --- |
| Cc1ccc(N=Nc2sc(NN=Cc3ccc(OCC(=O)N4CCN(C(=O)COc5ccc(C=NNc6nc(C)c(N=Nc7ccc(C)cc7)s6)cc5)CC4)cc3)nc2C)cc1 | EGFR kinase (Homo sapiens) | 74.8 ± 1.6% |
| Cc1nc(NN=Cc2ccccc2OCC(=O)N2CCN(C(=O)COc3ccccc3C=NNc3nc(C)c(N=Nc4ccc(Br)cc4)s3)CC2)sc1N=Nc1ccc(Br)cc1 | EGFR kinase (Homo sapiens) | 97.5 ± 2.1% |
| Cc1nc(NN=Cc2ccc(OCC(=O)N3CCN(C(=O)COc4ccc(C=NNc5nc(C)c(N=Nc6ccccc6)s5)cc4)CC3)cc2)sc1N=Nc1ccccc1 | EGFR kinase (Homo sapiens) | 83.7 ± 1.4% |

Now for the compound whose % of EGFR inhibition we want.
Hey, EGFR kinase (Homo sapiens) data for NC(=S)NN=Cc1ccccc1OCC(=O)N1CCN(C(=O)COc2ccccc2C=NNC(N)=S)CC1 : % of EGFR inhibition came out at 89.7 ± 2.8%
